Molecular target: CaRvs167-3
Experiment: SPOT peptide array binding signal intensity (averaged, normalized) (arbitrary units (background-subtracted, floor 0; scale differs between SH3 domains)); higher = stronger binding of the SH3 domain to the peptide
Is SPOT peptide array binding signal intensity at least 4? Then satisfied. If not, not satisfied.

Query string: Hi team, for MSPLGAPPPPPHKDH , is the recorded SPOT peptide array binding signal intensity at or above 4?
Result string: not satisfied

Query string: Record: DKKTKPTPPPKPSHL
Result string: not satisfied

Query string: // repeat for LSKRLPLRFPEHTSS and report
Result string: satisfied

Query string: And then ATKSASPTLPTRRSR , what is it?
Result string: satisfied

Query string: Another binder to look at: GDHPKGPPPPPPPPD
Result string: not satisfied

Query string: Continue with RRSKSLPTTPGIRSG
Result string: satisfied

Query string: What would you report for FPPKRKPLLRPQRSD ?
Result string: satisfied

Query string: Query QLMKNLPKIPLLNDI next
Result string: not satisfied

Query string: What do we get for RRARRQMGIPTISQV ?
Result string: satisfied

Query string: Please answer likewise for DDEDVPPQLPTRTKS
Result string: not satisfied

Query string: What do we get for APKHAPPPVPNETDN ?
Result string: not satisfied

Query string: Another binder to look at: YVRRRPRVRLEPLLS
Result string: satisfied

Query string: TPRLSLPRLPNKHHW , same question.
Result string: satisfied

Query string: Would you mind doing GSKSGPPPRPKKPST as well?
Result string: not satisfied

Query string: And what about the binder RRSKSLPITPKSIFN ?
Result string: satisfied
